- Species: Homo sapiens
- assay_notes: Selectivity for human FLAG-tagged HDAC6 over human FLAG-tagged HDAC1
Non-standard residues stand in square brackets, D forms with d. Residues, ends and D or L forms follow the SMILES beside them. *: point of attachment. Asu = N[C@@H](CCCCCC(=O)O)C(=O)O; Aib = CC(C)(N)C(=O)O; NHOH = ON*
measured_endpoint: Ratio IC50

COC(=O)[C@H](Cc1ccc(-c2ccc(-c3ccccc3)cc2)cc1)NC(=O)CCCCCCCC(=O)NO : 2.6
COC(=O)[C@H](Cc1ccc(Br)cc1)NC(=O)CCCCCCCC(=O)NO : 6.09
COC(=O)[C@H](Cc1ccc(-c2ccc(-c3ccccc3)cc2)cc1)NC(=O)CCCCCCC(=O)NO : 1.39
COC(=O)[C@H](Cc1ccc(-c2ccccc2)cc1)NC(=O)CCCCCCC(=O)NO : 1.16
COC(=O)[C@H](Cc1ccc(-c2ccsc2)cc1)NC(=O)CCCCCCC(=O)NO : 0.83
COC(=O)[C@H](Cc1ccc(-c2cccs2)cc1)NC(=O)CCCCCCCC(=O)NO : 4.1
COC(=O)[C@H](Cc1ccc(-c2ccc3ccccc3c2)cc1)NC(=O)CCCCCCC(=O)NO : 2.55
COC(=O)[C@H](Cc1ccc(-c2ccccc2)cc1)NC(=O)CCCCCCCC(=O)NO : 4.09
COC(=O)[C@H](Cc1ccc(-c2ccoc2)cc1)NC(=O)CCCCCCCC(=O)NO : 9.81
COC(=O)[C@H](Cc1ccc(-c2ccco2)cc1)NC(=O)CCCCCCCC(=O)NO : 4.19
CC1(C)NC(=O)[C@H](CCCCCC(=O)NO)NC(=O)[C@H]2CCCN2C(=O)[C@H](Cc2ccccc2)NC1=O (cyclo([Aib]F[dP][Asu](NHOH))) : 0.01
COC(=O)[C@H](Cc1ccc(-c2cccs2)cc1)NC(=O)CCCCCCC(=O)NO : 0.51
COC(=O)[C@H](Cc1ccc(Br)cc1)NC(=O)CCCCCCC(=O)NO : 13.5
COC(=O)[C@H](Cc1ccc(-c2ccsc2)cc1)NC(=O)CCCCCCCC(=O)NO : 10.8
COC(=O)[C@H](Cc1ccc(-c2ccco2)cc1)NC(=O)CCCCCCC(=O)NO : 0.58
COC(=O)[C@H](Cc1ccc(-c2ccoc2)cc1)NC(=O)CCCCCCC(=O)NO : 5.62
CN(C)c1ccc(C(=O)NCCCCCCC(=O)NO)cc1 : 3.95
COC(=O)[C@H](Cc1ccc(-c2ccc3ccccc3c2)cc1)NC(=O)CCCCCCCC(=O)NO : 3.7
